Hey, just so you know, these numbers are from patent US20250268854A1.

# test-method-notes: Blood-brain-barrier permeability of study compounds in mice after PO administration
# test-conditions: mouse, brain, po, Unbound Brain Concentration (ng/mL) T = 1 hour, T = 1 hour
Structures can show the parent of a compound that is named as a salt.
# Lookup of reported concentration at 1 h keyed by entry
Phrase the answer as number then unit, nothing more needed.

- molecule: "COc1cccc(CN[C@@H](CCC(C)(C)C)C(=O)O)c1.Cl"
  measured-endpoint: "concentration at 1 h"
  value-measured: "14 ng/mL"
- molecule: "Cc1cccc(NC(=O)c2ccc(C(F)(F)F)cc2C(=O)O)n1 [Comparative Example 1, reference compound]"
  measured-endpoint: "concentration at 1 h"
  value-measured: "0.2 ng/mL"

Asked: Given the entry Cn1ccc2c(CN[C@@H](CCC(C)(C)C)C(=O)O)cccc21 [Example 6, hydrochloride] , report its measured concentration at 1 h.
Given back: 1.4 ng/mL
